Tested target: Aurora kinase B/Inner centromere protein (Homo sapiens, UniProt Q96GD4)
Sequence (Q96GD4 whole entry): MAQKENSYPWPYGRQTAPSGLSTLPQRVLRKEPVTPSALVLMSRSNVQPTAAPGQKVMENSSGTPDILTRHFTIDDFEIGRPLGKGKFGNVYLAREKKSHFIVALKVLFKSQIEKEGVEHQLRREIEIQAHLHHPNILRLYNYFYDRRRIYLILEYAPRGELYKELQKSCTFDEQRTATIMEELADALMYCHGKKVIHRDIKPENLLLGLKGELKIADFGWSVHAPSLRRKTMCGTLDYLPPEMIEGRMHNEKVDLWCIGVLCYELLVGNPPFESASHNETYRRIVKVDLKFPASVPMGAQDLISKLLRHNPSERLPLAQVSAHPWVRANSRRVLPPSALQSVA
Sequence (Q9NQS7 whole entry, further chain): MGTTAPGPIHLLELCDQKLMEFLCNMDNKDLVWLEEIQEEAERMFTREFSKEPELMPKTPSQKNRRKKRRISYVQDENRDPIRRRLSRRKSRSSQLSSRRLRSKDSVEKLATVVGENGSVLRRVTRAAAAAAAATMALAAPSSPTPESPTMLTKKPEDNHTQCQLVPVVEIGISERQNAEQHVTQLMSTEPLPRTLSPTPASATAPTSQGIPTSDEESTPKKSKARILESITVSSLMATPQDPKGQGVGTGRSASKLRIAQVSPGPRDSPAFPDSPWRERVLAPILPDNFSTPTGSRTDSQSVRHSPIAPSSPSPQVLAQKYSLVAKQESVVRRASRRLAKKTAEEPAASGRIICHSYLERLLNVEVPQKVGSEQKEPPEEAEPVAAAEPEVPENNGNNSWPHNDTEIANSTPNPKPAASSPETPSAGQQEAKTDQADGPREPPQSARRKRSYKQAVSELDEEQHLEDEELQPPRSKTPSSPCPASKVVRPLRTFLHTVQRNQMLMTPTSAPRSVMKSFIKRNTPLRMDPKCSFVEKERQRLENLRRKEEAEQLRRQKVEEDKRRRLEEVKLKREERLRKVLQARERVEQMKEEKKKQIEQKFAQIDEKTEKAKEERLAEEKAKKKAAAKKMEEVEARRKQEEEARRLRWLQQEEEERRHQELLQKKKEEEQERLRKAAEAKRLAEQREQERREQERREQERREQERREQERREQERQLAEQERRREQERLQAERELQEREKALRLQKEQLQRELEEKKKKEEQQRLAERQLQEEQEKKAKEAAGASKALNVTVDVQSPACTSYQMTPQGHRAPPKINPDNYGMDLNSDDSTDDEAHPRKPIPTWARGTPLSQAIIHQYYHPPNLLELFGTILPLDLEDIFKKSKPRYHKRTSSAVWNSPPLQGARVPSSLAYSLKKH
Procedure summary: Inhibition of AURKB/INCENP (unknown origin) preincubated for 15 mins prior to ATP addition by FRET-based homogenous assay
Metric: pIC50
Reminder that pIC50 is minus the log10 of a molar concentration.

Here's what some known entries look like.
O=C(N[C@@H](c1ccccn1)C1CCCC1)c1ccc2[nH]nc(-c3ccc(N4C5CCC4COC5)cc3)c2c1; 5.85
O=C(N[C@H](CC1CC1)c1ccccn1)c1ccc2[nH]nc(-c3ccc(N4[C@H]5CC[C@H]4CC(O)C5)cc3)c2c1 (some centres not stated); 5.92
O=CN1CCC(Oc2ccc(-c3n[nH]c4ccc(C(=O)NC(c5ccccn5)C5CC5)cc34)cc2)CC1 (racemic); 7.02
CC(C)C[C@H](NC(=O)c1ccc2[nH]nc(-c3ccc(N4[C@H]5CC[C@H]4CC(O)C5)cc3)c2c1)c1ccccn1 (some centres not stated); 5.82
O=C(N[C@@H](c1ccccc1F)C1CC1)c1ccc2[nH]nc(-c3ccc(N4C5CCC4COC5)cc3)c2c1; 6.01

Field pIC50 (system: Aurora kinase B/Inner centromere protein (Homo sapiens, UniProt Q96GD4)) for entry CC(C)CC(NC(=O)c1ccc2[nH]nc(-c3ccc(O[C@H]4C[C@H]5CC[C@@H](C4)N5C=O)cc3)c2c1)c1ccccn1 (mixture of isomers) = 6.52

Field pIC50 (system: Aurora kinase B/Inner centromere protein (Homo sapiens, UniProt Q96GD4)) for entry O=C(N[C@@H](c1ncccn1)C1CCCC1)c1ccc2[nH]nc(-c3ccc(N4[C@H]5CC[C@H]4CC(O)C5)cc3)c2c1 (some centres not stated) = 6.07

* * *

Tested target: Aurora kinase B/Inner centromere protein (Homo sapiens, UniProt Q96GD4)
Procedure summary: Inhibition of AURKB/INCENP (unknown origin) preincubated for 15 mins prior to ATP addition by FRET-based homogenous assay
Metric: pIC50
Reminder that pIC50 is minus the log10 of a molar concentration.

Here's what some known entries look like.
CC(C)C[C@H](NC(=O)c1ccc2[nH]nc(-c3ccc(N4[C@H]5CCC[C@H]4CC(O)C5)cc3)c2c1)c1ccccn1 (stereo partly drawn); 6.01
O=C(N[C@@H](c1ccccn1)C1CCCC1)c1ccc2[nH]nc(-c3ccc(N4[C@H]5COC[C@H]4CC(O)C5)cc3)c2c1 (stereo partly drawn); 6.13
O=C(N[C@H](c1ccccn1)C1CCCC1)c1ccc2[nH]nc(-c3ccc(N4[C@H]5CC[C@H]4CC(O)C5)cc3)c2c1 (stereo in doubt; 88); 5.18

Lookup result for O=C(N[C@@H](c1ccccn1)C1CC1)c1ccc2[nH]nc(-c3ccc(N4C5CCC4COC5)cc3)c2c1 ; measured pIC50: 5.92

Lookup result for O=C(N[C@H](c1ccccn1)C1CC1)c1ccc2[nH]nc(-c3ccc(N4[C@H]5CC[C@H]4CC(O)C5)cc3)c2c1 (stereo in doubt; 74) ; measured pIC50: 6.28

Lookup result for O=C(N[C@@H](c1ccccn1)C1CCCC1)c1ccc2[nH]nc(-c3ccc(N4[C@H]5CC[C@H]4CC(O)C5)cc3)c2c1 (stereo partly drawn) ; measured pIC50: 5.74

* * *

Tested target: Mast/stem cell growth factor receptor Kit (Homo sapiens)
Sequence (P10721 whole entry): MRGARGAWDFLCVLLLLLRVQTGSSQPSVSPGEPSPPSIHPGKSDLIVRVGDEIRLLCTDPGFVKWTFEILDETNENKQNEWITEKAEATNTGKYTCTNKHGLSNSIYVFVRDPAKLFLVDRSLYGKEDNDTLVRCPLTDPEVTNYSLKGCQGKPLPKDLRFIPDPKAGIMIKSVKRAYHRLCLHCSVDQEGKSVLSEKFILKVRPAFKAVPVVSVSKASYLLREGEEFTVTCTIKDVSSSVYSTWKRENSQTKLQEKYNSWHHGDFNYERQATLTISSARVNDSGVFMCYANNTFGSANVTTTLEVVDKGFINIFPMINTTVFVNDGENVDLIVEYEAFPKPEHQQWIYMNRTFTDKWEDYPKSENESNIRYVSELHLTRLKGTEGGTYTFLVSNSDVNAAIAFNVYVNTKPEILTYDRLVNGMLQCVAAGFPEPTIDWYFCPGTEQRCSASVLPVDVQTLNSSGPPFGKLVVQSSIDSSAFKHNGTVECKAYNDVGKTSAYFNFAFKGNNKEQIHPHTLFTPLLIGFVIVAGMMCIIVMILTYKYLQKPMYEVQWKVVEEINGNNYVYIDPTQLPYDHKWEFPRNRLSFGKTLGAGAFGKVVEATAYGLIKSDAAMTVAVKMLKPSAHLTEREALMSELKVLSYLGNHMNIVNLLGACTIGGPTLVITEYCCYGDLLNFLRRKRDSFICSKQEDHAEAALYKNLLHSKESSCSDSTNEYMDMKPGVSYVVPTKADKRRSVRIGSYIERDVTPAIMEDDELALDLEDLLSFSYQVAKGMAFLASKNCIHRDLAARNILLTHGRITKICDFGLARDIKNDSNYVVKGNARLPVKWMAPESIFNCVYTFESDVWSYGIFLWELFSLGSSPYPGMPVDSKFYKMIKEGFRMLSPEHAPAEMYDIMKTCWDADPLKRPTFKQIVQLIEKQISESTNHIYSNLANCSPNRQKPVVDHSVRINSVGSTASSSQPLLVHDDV
pIC50: −log10 of the molar value.
Metric: pIC50

Lookup result for O=C(N[C@@H](c1ccccn1)C1CC1)c1ccc2[nH]nc(-c3ccc(N4[C@H]5CC[C@H]4CC(O)C5)cc3)c2c1 (stereo in doubt; 75) ; measured pIC50: < 4.52

* * *

Tested target: Mitogen-activated protein kinase 1 (Homo sapiens, UniProt P28482)
Sequence (P28482 whole entry): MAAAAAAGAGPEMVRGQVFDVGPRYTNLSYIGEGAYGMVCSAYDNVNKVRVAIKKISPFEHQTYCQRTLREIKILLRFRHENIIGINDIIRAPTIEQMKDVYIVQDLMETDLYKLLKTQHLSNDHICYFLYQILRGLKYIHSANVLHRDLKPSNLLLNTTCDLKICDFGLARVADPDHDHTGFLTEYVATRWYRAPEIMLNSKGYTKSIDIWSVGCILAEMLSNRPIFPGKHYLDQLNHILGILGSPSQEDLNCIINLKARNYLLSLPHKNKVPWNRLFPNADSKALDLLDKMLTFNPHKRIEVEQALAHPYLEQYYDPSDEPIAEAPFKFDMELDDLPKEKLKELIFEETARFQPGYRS
Procedure summary: Inhibition of human MAPK1 by millipore radiometric assay
Metric: pIC50
Reminder that pIC50 is minus the log10 of a molar concentration.

Lookup result for O=C(N[C@@H](c1ccccn1)C1CC1)c1ccc2[nH]nc(-c3ccc(N4[C@H]5CC[C@H]4CC(O)C5)cc3)c2c1 (stereo in doubt; 75) ; measured pIC50: 6.49

* * *

Tested target: Dual specificity protein kinase TTK (Homo sapiens)
Sequence (P33981 whole entry, the tested form may be a part): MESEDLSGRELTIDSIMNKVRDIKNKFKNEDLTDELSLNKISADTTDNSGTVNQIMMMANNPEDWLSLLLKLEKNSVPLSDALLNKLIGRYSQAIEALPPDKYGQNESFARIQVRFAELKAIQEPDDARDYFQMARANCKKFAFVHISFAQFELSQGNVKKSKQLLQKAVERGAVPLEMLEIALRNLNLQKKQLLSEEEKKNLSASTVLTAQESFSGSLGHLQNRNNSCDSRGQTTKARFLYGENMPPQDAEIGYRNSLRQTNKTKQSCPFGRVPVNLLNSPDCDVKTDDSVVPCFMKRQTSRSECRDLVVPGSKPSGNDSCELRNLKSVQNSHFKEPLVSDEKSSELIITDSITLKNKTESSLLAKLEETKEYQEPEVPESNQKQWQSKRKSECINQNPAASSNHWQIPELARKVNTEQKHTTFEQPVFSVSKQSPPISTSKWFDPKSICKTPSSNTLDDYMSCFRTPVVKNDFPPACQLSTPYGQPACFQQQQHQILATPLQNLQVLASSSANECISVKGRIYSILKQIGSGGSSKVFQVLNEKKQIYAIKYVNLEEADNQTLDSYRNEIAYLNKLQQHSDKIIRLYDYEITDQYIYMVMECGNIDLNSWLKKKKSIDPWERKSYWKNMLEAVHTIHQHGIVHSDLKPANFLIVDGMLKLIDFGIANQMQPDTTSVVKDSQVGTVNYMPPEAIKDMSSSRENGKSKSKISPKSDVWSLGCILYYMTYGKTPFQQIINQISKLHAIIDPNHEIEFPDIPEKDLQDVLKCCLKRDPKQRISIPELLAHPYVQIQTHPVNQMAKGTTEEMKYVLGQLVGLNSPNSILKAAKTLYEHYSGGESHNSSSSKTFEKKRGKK
Procedure summary: Inhibition of amino terminal GST-fused full length human TTK using His6-SUMO-TTK-N as substrate preincubated for 15 mins prior to ATP addition by indirect ELISA detection system
# pIC50 values compiled below
Reminder that pIC50 is minus the log10 of a molar concentration.

Here's what some known entries look like.
O=C(NCC1(N2CCOCC2)CCCCC1)c1ccc2[nH]nc(-c3ccc(N4CCC(O)CC4)cc3)c2c1; 6.64
O=C(NC(c1ccccc1)C1CC1)c1ccc2[nH]nc(-c3cccc(N4CCOCC4)c3)c2c1 (racemic); 6.47
O=C(N[C@H](c1ccccn1)C1CC1)c1ccc2[nH]nc(-c3ccc(N4[C@H]5CC[C@H]4CC(O)C5)cc3)c2c1 (stereo in doubt; 74); 8.92

Lookup result for O=C(NCC1(N2CCOCC2)CCCCC1)c1ccc2[nH]nc(-c3ccc(N4C5CCC4COC5)cc3)c2c1 ; measured pIC50: 8.96

Lookup result for CN1CCN(c2ccc(-c3n[nH]c4ccc(C(=O)NCC5(N6CCOCC6)CCCCC5)cc34)cc2)CC1 ; measured pIC50: 8.12

Lookup result for O=CN1CCC(Oc2ccc(-c3n[nH]c4ccc(C(=O)NC(c5ccccc5)C5CC5)cc34)cc2)CC1 (racemic) ; measured pIC50: 7.80

Lookup result for O=C(N[C@@H](c1ccccn1)C1CCCC1)c1ccc2[nH]nc(-c3ccc(N4[C@H]5COC[C@H]4CC(O)C5)cc3)c2c1 (stereo partly drawn) ; measured pIC50: 8.66

Lookup result for O=C(N[C@H](c1ccccn1)C1CC1)c1ccc2[nH]nc(-c3ccc(N4[C@H]5CC[C@H]4CC(O)C5)cc3)c2c1 (stereo in doubt; 86) ; measured pIC50: 8.80

Lookup result for O=C(N[C@H](c1ccccn1)C1CCCC1)c1ccc2[nH]nc(-c3ccc(N4[C@H]5CC[C@H]4CC(O)C5)cc3)c2c1 (stereo in doubt; 88) ; measured pIC50: 8.74

Lookup result for O=C(N[C@H](CC1CC1)c1ccccn1)c1ccc2[nH]nc(-c3ccc(N4[C@H]5CC[C@H]4CC(O)C5)cc3)c2c1 (stereo partly drawn) ; measured pIC50: 8.82

Lookup result for O=C(N[C@H](c1ccccn1)C1CCCC1)c1ccc2[nH]nc(-c3ccc(N4C5CCCC4COC5)cc3)c2c1 ; measured pIC50: 8.08

Lookup result for O=C(NCC1(N2CCOCC2)CCCCC1)c1ccc2[nH]nc(-c3ccc(N4CCOCC4)cc3)c2c1 ; measured pIC50: 8.11

Lookup result for O=C(N[C@@H](c1ncccn1)C1CCCC1)c1ccc2[nH]nc(-c3ccc(N4[C@H]5CC[C@H]4CC(O)C5)cc3)c2c1 (stereo partly drawn) ; measured pIC50: 8.41

Lookup result for CC(C)CC(NC(=O)c1ccc2[nH]nc(-c3ccc(O[C@H]4C[C@H]5CC[C@@H](C4)N5C=O)cc3)c2c1)c1ccccn1 (mixture of isomers) ; measured pIC50: 8.52

Lookup result for O=C(N[C@@H](c1ccccn1)C1CC1)c1ccc2[nH]nc(-c3ccc(N4[C@H]5CC[C@H]4CC(O)C5)cc3)c2c1 (stereo in doubt; 87) ; measured pIC50: 8.57

Lookup result for CC(C)C[C@@H](NC(=O)c1ccc2[nH]nc(-c3ccc(N4[C@H]5CC[C@H]4CC(O)C5)cc3)c2c1)c1ccccn1 (stereo partly drawn) ; measured pIC50: 8.57

Lookup result for O=C(NCC1(N2CCOCC2)CCCCC1)c1ccc2[nH]nc(-c3ccc(N4CC5CCC(C4)O5)cc3)c2c1 ; measured pIC50: 7.74

Lookup result for CN1[C@@H]2CC[C@H]1C[C@@H](Oc1ccc(-c3n[nH]c4ccc(C(=O)NC(c5ccccc5)C5CC5)cc34)cc1)C2 (mixture of isomers) ; measured pIC50: 8.55

Lookup result for O=CN1CCC(Oc2ccc(-c3n[nH]c4ccc(C(=O)NC(c5ccccn5)C5CC5)cc34)cc2)CC1 (racemic) ; measured pIC50: 8.03

Lookup result for O=C(N[C@@H](c1ccccn1)C1CC1)c1ccc2[nH]nc(-c3ccc(N4[C@H]5CC[C@H]4CC(O)C5)cc3)c2c1 (stereo in doubt; 75) ; measured pIC50: 8.51

Lookup result for CN1CCN(c2ccc(-c3n[nH]c4ccc(NC(=O)C(c5ccsc5)N5CCCC5)cc34)cc2)CC1 (racemic) ; measured pIC50: 8.13

* * *

Procedure summary: Plasma protein binding in human
Format: ADME, cell-free
Condition label: read-out: PPB (converted)
Metric: fraction unbound

Lookup result for O=C(N[C@@H](c1ccccn1)C1CC1)c1ccc2[nH]nc(-c3ccc(N4[C@H]5CC[C@H]4CC(O)C5)cc3)c2c1 (stereo in doubt; 75) ; measured fraction unbound: 0.022

* * *

# clearance values compiled below
Procedure summary: Clearance in Sprague-Dawley rat at 1 mg/kg, iv by LC-MS/MS analysis
Type: ADME, organism-based
Parameters: dose 1 mg/kg, route intravenous
Condition label: in vivo
Provide only the numeric value, understood in mL/min/kg.

Here's what some known entries look like.
O=C(N[C@@H](c1ccccn1)C1CC1)c1ccc2[nH]nc(-c3ccc(N4C5CCC4COC5)cc3)c2c1; 71
O=C(N[C@H](c1ncccn1)C1CCCC1)c1ccc2[nH]nc(-c3ccc(N4[C@H]5CC[C@H]4CC(O)C5)cc3)c2c1 (stereo partly specified); 125
O=C(N[C@H](CC1CC1)c1ccccn1)c1ccc2[nH]nc(-c3ccc(N4[C@H]5CC[C@H]4CC(O)C5)cc3)c2c1 (stereo partly specified); 57

Lookup result for O=C(N[C@H](c1ccccn1)C1CCCC1)c1ccc2[nH]nc(-c3ccc(N4[C@H]5CC[C@H]4CC(O)C5)cc3)c2c1 (stereo in doubt; 76) ; measured clearance: 91

Lookup result for O=C(N[C@@H](c1ccccn1)C1CC1)c1ccc2[nH]nc(-c3ccc(N4[C@H]5CC[C@H]4CC(O)C5)cc3)c2c1 (stereo in doubt; 75) ; measured clearance: 66

Lookup result for O=C(N[C@H](c1ccccn1)C1CC1)c1ccc2[nH]nc(-c3ccc(N4[C@H]5CC[C@H]4CC(O)C5)cc3)c2c1 (stereo in doubt; 86) ; measured clearance: 46
